Cited source: patent US4482560A

test name: Acute toxicity test
measurement setup: rat, in vivo; oral, male rats
measured attribute: LD50

INSERT INTO measurements (molecule, reported) VALUES
  ('CN1C(=O)CCc2ccc(OCCCN3CCC(Cc4ccccc4)CC3)cc21.O=C(O)C(=O)O', '> 1000 mg/kg'),
  ('O=C(O)C(=O)O.O=C1CCc2c(OCC(O)CN3CCC(Cc4ccccc4)CC3)cccc2N1Cc1ccccc1 (stereo not drawn)', '> 1000 mg/kg'),
  ('CCN1C(=O)CCc2c(OCC(O)CN3CCC(Cc4ccccc4)CC3)cccc21.O=C(O)C(=O)O (stereo not drawn)', '> 1000 mg/kg'),
  ('C=CCN1C(=O)CCc2c(OCC(O)CN3CCC(Cc4ccccc4)CC3)cccc21.O=C(O)C(=O)O (stereo not drawn)', '> 1000 mg/kg'),
  ('Cc1cc(=O)[nH]c2cc(OCCCN3CCC(Cc4ccccc4)CC3)ccc12', '> 1000 mg/kg'),
  ('C[N+]1(CC(O)COc2cccc3c2CCC(=O)N3)CCC(c2ccccc2)CC1 (stereo not drawn)', '> 1000 mg/kg');

----------
study target: ileum of a guinea pig (Cavia porcellus, UniProt P31389)
Sequence (P31389 whole entry): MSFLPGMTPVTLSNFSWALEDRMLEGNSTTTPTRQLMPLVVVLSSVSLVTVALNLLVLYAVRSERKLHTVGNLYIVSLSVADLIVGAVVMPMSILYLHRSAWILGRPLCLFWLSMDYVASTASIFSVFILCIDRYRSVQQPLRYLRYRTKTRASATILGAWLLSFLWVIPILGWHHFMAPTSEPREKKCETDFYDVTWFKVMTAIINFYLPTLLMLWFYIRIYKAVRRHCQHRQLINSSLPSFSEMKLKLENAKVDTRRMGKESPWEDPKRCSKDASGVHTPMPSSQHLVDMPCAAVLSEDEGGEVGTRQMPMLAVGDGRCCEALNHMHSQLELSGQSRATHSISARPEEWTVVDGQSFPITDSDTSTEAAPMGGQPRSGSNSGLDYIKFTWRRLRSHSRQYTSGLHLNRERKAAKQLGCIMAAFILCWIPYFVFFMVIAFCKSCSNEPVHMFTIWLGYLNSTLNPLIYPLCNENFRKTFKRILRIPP
test name: cell-based
measurement setup: histamine-induced retraction of guinea pig ileum, test compound 10^-6 g/ml, 36° C., Van Rossam method; read-out: pA2 (converted)
Structures can show the parent of a compound that is named as a salt.
Quick reference for Kb among some molecules
measured attribute: Kb

INSERT INTO assay_data (molecule, study_target, measured_attribute, reported) VALUES
  ('Cc1cc(=O)[nH]c2ccc(OCCCN3CCN(c4ccccc4)CC3)cc12 [H, reference compound]', 'ileum of a guinea pig (Cavia porcellus, UniProt P31389)', 'Kb', '0.269 nM'),
  ('O=C1CCc2c(OCC(O)CN3CCC(Cc4ccccc4)CC3)ccc(Br)c2N1 (stereo not drawn) [Compound 8]', 'ileum of a guinea pig (Cavia porcellus, UniProt P31389)', 'Kb', '4.07 nM'),
  ('C#CCN1C(=O)CCc2c(OCCCN3CCC(Cc4ccccc4)CC3)cccc21.Cl [Compound 3, monohydrochloride]', 'ileum of a guinea pig (Cavia porcellus, UniProt P31389)', 'Kb', '0.186 nM'),
  ('CCN1C(=O)CCc2c(OCC(O)CN3CCC(Cc4ccccc4)CC3)cccc21.O=C(O)C(=O)O (stereo not drawn) [Compound 7, monooxalate]', 'ileum of a guinea pig (Cavia porcellus, UniProt P31389)', 'Kb', '0.224 nM'),
  ('CN1C(=O)CCc2c(OCC(O)CN3CCC(Cc4ccccc4)CC3)cccc21.O=C(O)C(=O)O (stereo not drawn) [Compound 10, monooxalate]', 'ileum of a guinea pig (Cavia porcellus, UniProt P31389)', 'Kb', '0.24 nM'),
  ('CC(=O)Oc1ccc(OCC(O)CN2CCN(c3ccccc3Cl)CC2)c2c1NC(=O)CC2 (stereo not drawn) [P, hydrochloride, reference compound]', 'ileum of a guinea pig (Cavia porcellus, UniProt P31389)', 'Kb', '24 nM');
